Target: Recombinant human Src enzyme (Homo sapiens, UniProt P12931)
Construct: purchased PanVera P3044
Sequence (P12931 whole entry): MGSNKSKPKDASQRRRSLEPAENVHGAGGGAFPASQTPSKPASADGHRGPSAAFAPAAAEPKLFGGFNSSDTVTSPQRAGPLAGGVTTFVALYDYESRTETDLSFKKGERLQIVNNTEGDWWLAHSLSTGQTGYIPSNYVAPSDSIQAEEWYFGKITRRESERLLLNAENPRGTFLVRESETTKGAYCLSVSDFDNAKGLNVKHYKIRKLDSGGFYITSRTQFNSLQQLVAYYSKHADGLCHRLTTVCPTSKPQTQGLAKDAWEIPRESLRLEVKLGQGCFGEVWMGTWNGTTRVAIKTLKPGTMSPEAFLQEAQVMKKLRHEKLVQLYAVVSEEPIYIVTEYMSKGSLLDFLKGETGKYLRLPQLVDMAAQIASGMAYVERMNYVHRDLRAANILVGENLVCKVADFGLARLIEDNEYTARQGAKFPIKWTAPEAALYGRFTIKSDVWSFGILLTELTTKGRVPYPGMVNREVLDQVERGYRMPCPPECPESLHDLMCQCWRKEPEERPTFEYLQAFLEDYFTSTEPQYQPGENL
Experiment: Src Kinase Assay (LANCE FRET)
Format: biochemical
Settings: Src enzyme IC50, 100 μM ATP; multiple entries = tested multiple times
Observation Type: pIC50
Note: pIC50 values are expressed as the negative base-10 logarithm of concentration in M.

Any idea what its pIC50 is? The molecule is COc1cc(Nc2c(C#N)cnc3cc(-c4coc(CN5CCCCC5)c4)c(OC)cc23)c(Cl)cc1Cl
9.15

###

Observation Type: melting point

// worked examples, melting point included
1. COc1cc(Nc2c(C#N)cnc3cc(-c4coc(CN5CCN(c6ccccc6)CC5)c4)c(OC)cc23)c(Cl)cc1Cl	201 to 203 °C
2. COc1cc(Nc2c(C#N)cnc3cc(-c4coc(CN(C)C)c4)c(OC)cc23)c(Cl)cc1Cl	133 to 138 °C
3. COc1ccc(N2CCN(Cc3cc(-c4cc5ncc(C#N)c(Nc6cc(OC)c(Cl)cc6Cl)c5cc4OC)co3)CC2)c(OC)c1	223 to 225 °C

Any idea what its melting point is? The compound is COc1cc(Nc2c(C#N)cnc3cc(-c4coc(CN5CCN(C)CC5)c4)c(OC)cc23)c(Cl)cc1Cl
179 to 181 °C

Any idea what its melting point is? The compound is COc1cc(Nc2c(C#N)cnc3cc(-c4coc(CN5CCOCC5)c4)c(OC)cc23)c(Cl)cc1Cl
164 to 166 °C

###

System: K562 Cells
Assay: K562 cell assay
Assay type: cell-based
Conditions: Homo sapiens
Method: The cell assays were performed as noted in Cancer Research 63, 375-381 (2003).
Observation Type: pIC50
Note: pIC50 values are expressed as the negative base-10 logarithm of concentration in M.

Any idea what its pIC50 is? The compound is COc1cc(Nc2c(C#N)cnc3cc(-c4coc(CN5CCN(C)CC5)c4)c(OC)cc23)c(Cl)cc1Cl
8.25
